- Test: yeast display, Sf9 membrane polyspecificity reagent, FACS + sequencing; frameworks hold sequencing errors
Measured quantity: polyreactivity (PSR sort gate)

1) QFQLVESGGGLVQSGGSLRLSCAASGFIFRSYAMGWYRQAPVKERELVAVISRRGVNTHYADSVKGRFTISRDNAKNTVYLQMNSLKPEDTAVYYCAKGLTAVGDYWGQGTQVTVSS : high polyreactivity
2) QDQLVDSGGGLVQAGGSLRLSCAASGSIFPIYAMGGYRQAPGKERELVAAIDWGDGSTSYADSVKGRFTISRDNAKNTVYLQMNSLKPEDTAVYYCAARSVFDLVYYNLIFDYWGQGTQVTVSS : high polyreactivity
3) QVQLVESGGGLVQAGGSLRLSCAASGSTFDGYVMGWYRQAPGKEREFVAAISWSGGSTYYADSVKGRFTISRDNAKYTVYLQMNRLKREDTAVYYCAARVRRQHGYWGQGTQVTVST : high polyreactivity
4) QVQLVESGGGLVQAGGSLRLSCAASGRIFTYYAMGWYRQAPGKERELVASITGSGGSTDYADSVKGRFTISRDNAKNTVYLQMNSLKPEDTAVYYCAADHSGVSRYDYWGQGTQVTVSS : low polyreactivity
5) QFQLVESVGGLVQAGGSLRLSCAASGYIFRHYAMGWYRQAPGKERELVAAISGRGGSTYYADSVKGRFTISRDNAKNTVYLQMNSLKPEDTAVYYCAKDRKAVGDFYYWGQGTQVTVSS : high polyreactivity
6) QVQLVESGGGLVQAGGSLRLSCAASGFNCATNYMGWYRQAPGKERELVAAITKGGGRTYYADSVKGRFTISRDNAKNTVYLQMNSLKPEDTAVYYCAARQLIKYDYWGQGTQVTVSS : low polyreactivity
7) QVQLVESGGGLVQAGGSLRLSCAASGRTFNKYAMGWYRQAPGKERELVAAINTSGGSTYYADSVKGRFTISRDNAKNTVYLQMNSLKPEDTAVYYCAAQSRSVYGRSYGYWGQGTQVTVSS : high polyreactivity
8) QVQLVESGGGLVQAGGSLRLSCAASGIFRYYAMGWYRQAPGKERELVASITGGGSTYYADSVKGRFTISRDNAKMTVYLQLNSLKPEDTAVYYCNTAGAYYRWTPYYYWGQGTQVTVSS : high polyreactivity
9) QVQLVESGGCLVQAGGSLRLSCAASGYIFYGYAMGWYRQAPGKERELVAAITVRGGSTYYADSVKGRFRISRDNAKNTVYLQMNSLKPQDTAVYYCAAAPQFTFGVGYWGQGTQVTVSS : low polyreactivity
10) QVQLVESGGGLVQAGGSLRLSCAASGFILGHNAMGWYRQAPGKERELVSAITWRGRTYYADSVKGRFTISRDNAKNTVYLHMNSLKPEDTAVYYCASDTKFCYGYWGQGTQVTVSS : high polyreactivity
11) QVQLVESGGGLVQAGGSLRLSCAASGSIFRSYAMGWYRQAPGKEREFVAAINSRSGSTYYADSVKGRFTISRDNAKNTVYFQINSLKPEDTAVYYWAVTYYTRGYGHMDYWGQGTQVTVSS : high polyreactivity

###

- Test: yeast display, Sf9 membrane polyspecificity reagent, FACS + sequencing; frameworks hold sequencing errors
Measured quantity: polyreactivity (PSR sort gate)

1) QVQLVESGGCLVQAGGSHRLSCAASGRTFGYNAMGWYSQAPRKERELVAVIRSGGSTYYADSVKGRYTISRDNAKNTVYFQMNSLKPEDTAVYYCAATGLYNVTSPYSYKYDYWGQGTQVTVSS : low polyreactivity
2) QVQLVESGGGLVQAGGSLRLSCAASGFTFTTNAMGWYRQAPGKERELVAAISKRGTRTYYADSVKGRFTISRDNAKNTVYLQMNSLKPEDTAVYYCAAASVAGDKFDYWGQGTQVTVSS : high polyreactivity
3) QVQLVESAGGLVQAGGSLRLSCAASGFTFIGYVMGWYRQAPGKERELVAAITSGGDTNYADSVKGRFTISRDNAKNTVYLQMNSLKPEDTAVYYCNKGAYWVEYAYIEGELDYWGQGTQVTVSS : low polyreactivity
4) QVQLVESGGGLVQAGGSLRLSCAASGSTFAWYAMGWYRQAPGKGEFVAGISDSGGRTYYADSVKGRFTISRDNAKNTVYLQMNSLKPEDTAVYYCAAGDHYYRYAYRRGYWGQGTQVTVSS : low polyreactivity
5) QVQLVESGGGIVQAGVSLRLSCAASGSTFWDNDMGWYRPAPGKERELVAVISWDDGSTYYADSVKGRFTISRDNAKNTVYLQMNSLKPEDTAVYYCAADAYYALFPSWTVGDCPYYYWGQGTQVTVSS : high polyreactivity
6) QVQLVESGGGLVQAGGSLRLSCAACGRTFYQNAMGWYRQAPGKERELVAAISRSGGSTYYADSVKGRFTISLYNAKNTVYLQMNSLKPEDTAVYFCAADPRSYGGGYDYWGQGTQVTVSS : high polyreactivity
7) QVQLVESGGGLVQAGGSLRLSCAASGRIFTRNAMGWYRQAPGKEREFVAAISYRGGSTYYADSVKGRFTISRDYAKNTVYLQMNSLKPEDTAVYYCAAEPYIQWVYYGGNGRRYGYWGQGTQVTVSS : high polyreactivity
8) QVQHVETGGGLVQAGGSLRLSCAASGSTFVLYAKGWYRQAPGKERELVAAITWSGDDTYYADSVKGRFTISRDNAKNTVYLQMISLKPEDTAVYYCAAAYAYWGQGTQVTVSS : low polyreactivity
9) QVQLVESGGGLVQAGGSLRLSCASSGSIFYPYAMGWYRPAPGKERELVAAISSGGTTYYADSVKGRFTISRDNAKNTVYLQMNSLKPEDTAVYYCAAGFYLRAVWMDYWGQGTQVTVSS : high polyreactivity
10) QLQLQESGSGLEQAGGSLRLSCASSGYISLGDNMGWYRQAPGKEREFVATISVGGITYYVDSVKGRFTISRDIAKNTVYLQRNSLNPEDTAVYYCADLDIYYFRYYYWGQGTQVTVSS : low polyreactivity
11) QVQLVESGGGLVQAGGSLRLSCAASGFTFLKNAMGWYRQAPGKERELVAAITGSGGSTYYADSVKGRFTISRDNAKNTVYLQMNSLKPEDTAVYYCNVRRGLRAYEYWGQGTQVTVSS : high polyreactivity
12) QVQLVESGGGLVQAGGSLRLSCAASGSTITSYAMRLYRQAPGKDRELVASISRSGGRTYYADSVKGRFTISRDNAKNTVYLQMNSLKPEDTAVYYCAADDYSATTRYYYWGQGTQVTVSS : high polyreactivity
13) QVQLVESGGGLVQAGGSLRISCAASGRTFKNYSMGWYRQAPGKERELVAAITSGGITNYADSVKGRFTISRDNAKNTVYLQMNRLKPEDTAVYYCNTRRGWRDFDYWGQGTQVTVSS : low polyreactivity
14) QVQLVESGGGLVQAGGSLRLSCAASGITFGHYAMGWYRQAPGKERELVAAINFSGGSTYYADSVKGRFTISRDNAKNTVYLQMNSLKPEDTAVYYCAAKYSRSLRYPWYNYWGQGTQVTVSS : high polyreactivity
15) QLQLVESGGGLVQAGGSLRLSCAASGFNFPANAMGCYRQAPGKEREFVAAITRRGGSTYYADSVKGRFTISRDYAKNPVYLQMNSLKPEDTAVYYCATYDPARSTQGYDYWGQGTQVTVSS : high polyreactivity
16) QVQLVESGGGLVQAGGSLRLSCAASGRIFKINAMGWYRPAPGKERELVAGISGSGSDTYYADSVKGRFTISRDNAKNTVYLQMNSLKPEDTAVYYCAATVVQYYDRDYWGQGTQVTVSS : low polyreactivity
17) QVQLVESGGGLVQAGGSLSLICAASGFIFLYYAMGWYRQAPGKERELVADISRGADTKYADSVKGRFTISRDNAKNTVYLQMNSLKPEDTAVYYCATDITTFWFPYPGVELGYWGQGTQVTVSS : low polyreactivity
18) QVQLVESGGGLVQAGGSLRLSCAASGFIFPVNAMGWSRQAPGKERELVAGITSSGGSTYYADSVKGRFTISRDNAKNTVYLQMNSRKPEDTAVYYCNAYIDALPVSYHFDYWGQGTQLTVSS : low polyreactivity
19) QVHLVDSGGGKVQAGGSLRLSCAASGSIFYWNAMGWYRQAPGKERELVATITITTSTNYADSVKGRFTISRDNATHSVYLQMNSMKPEDTAVYYCNAGAPYRYLDEYNYWGQGTQVTVSS : low polyreactivity
20) QVQLVESGGGLVQAGGSLRLSCAASGSIFRINAMGWYRQAPGKERELVAAISWSGGSTYYADSVKGRFTISRDNAKNTVYLQMNSLKPEDTAVYYCAAVVSKSSFDYWGQGTQVTVSS : low polyreactivity
21) QVQLVESGGGLVQAGGSLRLSCAASGQIFHSYAMGWSRQAPGKERELVAAISRGGGSTYYADSVKGRFTISRDNAKNTVYLQMNSLKPEDTAVYYCARENLTRYDYWGQGTQVTVSS : high polyreactivity

meta.source: the nanobody polyreactivity screen of Harvey et al. (2022)
